B1: TSN (parent)
chain: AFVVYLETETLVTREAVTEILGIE

Variants of: B1
protocol-description: protein stability index of a GFP-peptide fusion (GPS, HEK-293T) (PSI 1-6); higher = more stable;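 note: lentivirally expressed fusions sorted by FACS into six bins by GFP to DsRed ratio, PSI derived from sequencing read proportions per bin multiplied by bin number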
assay-setup: c terminus: a fixed tail appended
Kind request: treat 2 as inclusive, so protein stability index at 2 or higher is Y, anything lower is N.

> print(dat)
   variant.string  category.label
1            T13D               N
2             T8E               N
3             V4N               Y

Ask | Determine whether this variant has protein stability index no lower than 2: `A16F`
Reply | Y

Ask | Determine whether this variant has protein stability index no lower than 2: `T8G`
Reply | Y

Ask | Determine whether this variant has protein stability index no lower than 2: `A16Y`
Reply | Y

Ask | Is it the case that `E24A` has protein stability index reaching or exceeding 2?
Reply | Y

Ask | Check this variant for protein stability index at or above 2: `V12N`
Reply | Y

Ask | Given the entry `I20A` , answer whether its protein stability index meets or surpasses 2.
Reply | Y

Ask | Item `L21C` with protein stability index of 2 or above?
Reply | Y

Values compiled from the supplement of paper PMC10567573.
